Molecular target: human p38 kinase alpha (Homo sapiens)
Construct: GST (N, cleaved yes); made in house; host or cells: E. coli DH10B
Sequence (Q16539 whole entry): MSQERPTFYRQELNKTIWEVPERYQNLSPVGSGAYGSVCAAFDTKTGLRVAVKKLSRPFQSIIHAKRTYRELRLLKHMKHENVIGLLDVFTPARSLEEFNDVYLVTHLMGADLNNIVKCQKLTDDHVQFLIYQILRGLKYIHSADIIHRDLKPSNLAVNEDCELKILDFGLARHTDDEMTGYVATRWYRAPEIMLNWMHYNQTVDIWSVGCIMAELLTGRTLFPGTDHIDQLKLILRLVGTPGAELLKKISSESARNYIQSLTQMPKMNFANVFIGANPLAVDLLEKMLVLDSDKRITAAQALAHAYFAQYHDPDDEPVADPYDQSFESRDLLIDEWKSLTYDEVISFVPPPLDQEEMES
Assay: p38 kinase in vitro assay, phosphorylation of biotinylated PHAS-I with 32P-ATP
Assay type: biochemical
Conditions: in vitro P38-alpha kinase inhibition; read-out: P38 alpha kinase IC50
recorded.endpoint: IC50 (µM)

Known results for compounds:
compound: CC(C)=CC(=O)NC(C)c1[nH]nc(-c2ccc(F)cc2)c1-c1ccncc1 (stereo not shown)
IC50 (µM): 1.24
--
compound: CC(NC(=O)c1ccccn1)c1[nH]nc(-c2ccc(F)cc2)c1-c1ccncc1 (stereo not shown)
IC50 (µM): 0.49

(1) COc1ccc(OC)c(S(=O)(=O)NC(C)c2[nH]nc(-c3ccc(F)cc3)c2-c2ccncc2)c1 (stereo not shown)
(2) O=C(NCCc1[nH]nc(-c2ccc(F)cc2)c1-c1ccncc1)c1cc2ccccc2s1
Query string: // which entry has the larger IC50 value, 1 or 2 ? Please identify the chosen entry by its label.
Result string: 2
(2: 1.49 µM, 1: 0.6 µM)
